# Tested on: HepG2
# Test summary: cell viability relative to DMSO; higher = less toxic
# Experimental setup: 72 h; 1000 nM
Documented cell viability across a set of compounds
Report the value in % with no unit label.

// solved cases for cell viability follow
CCCCC(=O)NCCc1c(Cc2ccccc2)[nH]c2ccccc12 = 105
CCN(CCNC(=O)Nc1ccccc1Br)c1cccc(C)c1 = 99.6
O=c1c2ccccc2[se]n1-c1ccccc1 = 100
Cc1cccc(/C=N/Nc2cc(N3CCOCC3)nc(OCCc3ccccn3)n2)c1 = 26.2
O=C(Nc1ccc(Cl)cc1)Nc1cccc(-c2cccc(N3CCCC3)n2)c1 = 102
Cn1cc(-c2ccc3c(c2)CCN3C(=O)Cc2cccc(C(F)(F)F)c2)c2c(N)ncnc21 = 101
CC(C)NCC(O)COc1cccc2[nH]ccc12 (stereo not drawn) = 85.5
CO/N=C(\C(=O)N[C@@H]1C(=O)N2C(C(=O)OCOC(=O)C(C)(C)C)=C(C)CS[C@H]12)c1csc(N)n1 = 97.8
N[C@H](C(=O)O)c1ccc(O)c(C(=O)O)c1 [3-carboxy-4-hydroxyphenylglycine-(S)] = 100
Cc1cccc(Oc2cnc(=O)[nH]c2)c1 = 94.1

Would you kindly share the measured cell viability for "CC(C)(CC(=O)N1CCCC1)NCC(=O)N1C[C@@H](F)C[C@H]1C#N" ? 104

How about this compound: CN1CCC[C@@H](CC2c3ccccc3Sc3ccccc32)C1 (racemic) 101

Another compound to check: "c1ccc(C(NCc2cccnc2)(c2ccccc2)c2ccccc2)cc1" 92.6

Lookup Clc1ccc(C(Cn2ccnc2)OCc2csc3c(Cl)cccc23)c(Cl)c1 (stereo not drawn) 105

Please do the same for "CCOc1cc(/C=C2/C(=O)N(c3ccccc3)N=C2C)cc(Cl)c1OCC(=O)OC" as well. 98.3

====

# Test system: Caco-2
# Test summary: cell viability relative to DMSO; higher = less toxic
# Experimental setup: 72 h; 1000 nM
Assay readout: cell viability (%)
# number only, unit % dropped from output

Use these answered entries as a reference point.
CC(C)(C)NCC(O)COc1cccc2c1CCC(=O)N2 (stereo unspecified) = 98.1
CC(C)/N=c1\cc2n(-c3ccc(Cl)cc3)c3ccccc3nc-2cc1Nc1ccc(Cl)cc1 = 84.5
CC(C)NCC(O)c1cc(O)cc(O)c1 (stereo unspecified) = 106
CC1(C)OC[C@@H](COC(=O)CCc2ccc(OC[C@@H](O)CNCCNC(=O)N3CCOCC3)cc2)O1 = 108
COc1c(Nc2ccc(S(C)(=O)=O)nc2C)ncnc1OC1CCN(C(=O)OC(C)C)CC1 = 93.4

Give Caco-2 cell viability for "O=C(O[C@H]1C[N+]2(CCCOc3ccccc3)CCC1CC2)C(O)(c1cccs1)c1cccs1" 94.3

Thanks! And "Nc1c2ccccc2nc2ccccc12" ? 134

Same question for "CS(=O)(=O)c1ccc(-c2nnc(/C=C/c3nnc(-c4ccc(C#N)cc4)o3)n2-c2ccccc2Cl)nc1" please. 83.1

Next: CNC1CCCN(c2c(F)cc3c(=O)c(C(=O)O)cn(C4CC4)c3c2OC)C1 (stereo unspecified) 93.3

Repeat for the following compound: "C=CCNC(=O)c1cc([N+](=O)[O-])cc2c(=O)[nH]c(Nc3ccc(Cl)c(Cl)c3)nc12" 96.5

====

Entries and their cell viability
# Test system: Vero E6
# Test summary: cell viability relative to DMSO; higher = less toxic
# Experimental setup: 72 h; 100 nM
Entry rule: numbers only, all in %.

CC[C@H](CC[C@@H](C)[C@H]1CC[C@H]2[C@@H]3CC=C4C[C@@H](O)CC[C@]4(C)[C@H]3CC[C@]12C)C(C)C = 92.4
CCO/N=C(\C(=O)N[C@@H]1C(=O)N2C(C(=O)[O-])=C(Sc3nc(-c4cc[n+](C)cc4)cs3)CS[C@H]12)c1nsc(NP(=O)(O)O)n1 = 107
COc1c(Nc2ccc(S(C)(=O)=O)nc2C)ncnc1OC1CCN(C(=O)OC(C)C)CC1 = 97
CCN(CC)CCOc1ccccc1C(=O)CCc1ccccc1 = 101
OC[C@H]1O[C@H](O[C@]2(CCl)O[C@H](CCl)[C@@H](O)[C@@H]2O)[C@H](O)[C@@H](O)[C@H]1Cl = 101
C=CCCCCCCCCC(=O)[O][Zn][O]C(=O)CCCCCCCCC=C [zinc-undecylenate] = 94.8
CC(C)(C)NC(=O)[C@@H](c1cccnc1)N(C(=O)c1ccco1)c1ccc(C(C)(C)C)cc1 = 103
O=C(O)CN1C(=O)c2cccc3cccc(c23)C1=O = 105

I have this compound here, "Cc1cccc2c1CC[C@H](CN1CCC(c3c(Cl)cccc3Cl)CC1)C[C@@H]2O" , and I need its recorded cell viability. 95

Item: CC(C)NCC(O)c1cc(O)cc(O)c1 (centres undefined) 92.7

And for CC(C)(O)C(=O)Nc1ccc([N+](=O)[O-])c(C(F)(F)F)c1 [2-hydroxyflutamide] ? 102

How about this compound: "C[C@H]1O[C@@H](Oc2c(-c3cc(O)c(O)c(O)c3)oc3cc(O)cc(O)c3c2=O)[C@@H](O)[C@@H](O)[C@@H]1O" 97.7

For "COc1ccc(Cl)cc1NC(=O)Nc1cc(C)nc2ccccc12" then? 92.8

Also check "CC1(C)OC[C@@H](COC(=O)CCc2ccc(OC[C@@H](O)CNCCNC(=O)N3CCOCC3)cc2)O1" 93.4

Another compound: CCOC(=O)c1ccccc1OC(N)=O [ethyl-2-(carbamoyloxy)benzoate] 102

Proceed to "O=Cc1ccc(CO)o1" 99.7

Now give it for "CNC(=O)c1ccccc1Nc1nc(Nc2ccc(N3CCOCC3)cc2OC)ncc1Cl" too. 96.3

Now the compound "O=C1N[C@@H]2[C@@H](O)[C@@H](O)[C@H](O)[C@@H](CO)N2C1=O" 96.2

And "OC[C@H]1O[C@@H](Oc2ccc(O)cc2)[C@H](O)[C@@H](O)[C@@H]1O" ? 91.6
